The measured values listed here are drawn from patent US20260028391A1.

Give measured EC50 for each item. Keep answers brief.
target: T1, DS-Cav1 RSV F (respiratory syncytial virus); test: ELISA on DS-Cav1 RSV F
T1 construct: also called DC-VCav1

Given MPH12 VH-S63A / MPH12 VL-D25S (antibody, V domains shown, MPH12 variant; VH and VL only) VH: QVQLVESGGGLVKPGGSLRLSCVASGFTFSGFYMKWIRQAPGKGLEWVSSISASGSYTNYADAVEGRFTVSRDNAKNSLFLLMSSLRAEDTAVYYCARGDSYCGASACHGEFFHKWGQGTLVTVSS VL: QSVLTQPPSVSGAPGQRVTISCTGSSSNIGADFDVHWYQQLPGTAPKLLIYGNINRPSGVPDRFSGSRSGTSAFLAITRLQAEDEADYYCQSYDRSLHYVFGAGTKVTVL , state its recorded EC50.
0.0249 µg/mL

Given MPH12 VH / MPH12 VL-D25S (antibody, V domains shown, MPH12 variant; VH and VL only) VH: QVQLVESGGGLVKPGGSLRLSCVASGFTFSGFYMKWIRQAPGKGLEWVSSISASGSYTNYADSVEGRFTVSRDNAKNSLFLLMSSLRAEDTAVYYCARGDSYCGASACHGEFFHKWGQGTLVTVSS VL: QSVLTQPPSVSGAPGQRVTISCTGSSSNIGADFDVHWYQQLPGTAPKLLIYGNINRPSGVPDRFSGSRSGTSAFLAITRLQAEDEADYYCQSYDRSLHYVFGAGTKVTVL , state its recorded EC50.
0.0235 µg/mL

Given MPH12-v28 (VH-FRGL-S63A/VL-S26A) (antibody, V domains shown, also called MPH12 VH-FRGL-S63A / MPH12 VL-S26A) VH: QVQLVESGGGLVKPGGSLRLSCAASGFTFSGFYMKWIRQAPGKGLEWVSSISASGSYTNYADAVEGRFTISRDNAKNSLYLQMNSLRAEDTAVYYCARGDSYCGASACHGEFFHKWGQGTLVTVSS VL: QSVLTQPPSVSGAPGQRVTISCTGSDANIGADFDVHWYQQLPGTAPKLLIYGNINRPSGVPDRFSGSRSGTSAFLAITRLQAEDEADYYCQSYDRSLHYVFGAGTKVTVL , state its recorded EC50.
0.0322 µg/mL

Given MPH12 VH-D62E / MPH12 VL (antibody, V domains shown, MPH12 variant; VH and VL only) VH: QVQLVESGGGLVKPGGSLRLSCVASGFTFSGFYMKWIRQAPGKGLEWVSSISASGSYTNYAESVEGRFTVSRDNAKNSLFLLMSSLRAEDTAVYYCARGDSYCGASACHGEFFHKWGQGTLVTVSS VL: QSVLTQPPSVSGAPGQRVTISCTGSDSNIGADFDVHWYQQLPGTAPKLLIYGNINRPSGVPDRFSGSRSGTSAFLAITRLQAEDEADYYCQSYDRSLHYVFGAGTKVTVL , state its recorded EC50.
0.0241 µg/mL

Given MPH12 VH-FRGL / MPH12 VL (antibody, V domains shown, MPH12 variant; VH and VL only) VH: QVQLVESGGGLVKPGGSLRLSCAASGFTFSGFYMKWIRQAPGKGLEWVSSISASGSYTNYADSVEGRFTISRDNAKNSLYLQMNSLRAEDTAVYYCARGDSYCGASACHGEFFHKWGQGTLVTVSS VL: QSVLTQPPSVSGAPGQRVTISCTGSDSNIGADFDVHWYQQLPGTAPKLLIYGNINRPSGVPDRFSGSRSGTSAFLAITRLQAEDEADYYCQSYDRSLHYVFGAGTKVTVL , state its recorded EC50.
0.0328 µg/mL

Given MPH12 VH-S63A / MPH12 VL-D25E (antibody, V domains shown, MPH12 variant; VH and VL only) VH: QVQLVESGGGLVKPGGSLRLSCVASGFTFSGFYMKWIRQAPGKGLEWVSSISASGSYTNYADAVEGRFTVSRDNAKNSLFLLMSSLRAEDTAVYYCARGDSYCGASACHGEFFHKWGQGTLVTVSS VL: QSVLTQPPSVSGAPGQRVTISCTGSESNIGADFDVHWYQQLPGTAPKLLIYGNINRPSGVPDRFSGSRSGTSAFLAITRLQAEDEADYYCQSYDRSLHYVFGAGTKVTVL , state its recorded EC50.
0.0406 µg/mL

Given MPH12 VH-D62E / MPH12 VL-D25E (antibody, V domains shown, MPH12 variant; VH and VL only) VH: QVQLVESGGGLVKPGGSLRLSCVASGFTFSGFYMKWIRQAPGKGLEWVSSISASGSYTNYAESVEGRFTVSRDNAKNSLFLLMSSLRAEDTAVYYCARGDSYCGASACHGEFFHKWGQGTLVTVSS VL: QSVLTQPPSVSGAPGQRVTISCTGSESNIGADFDVHWYQQLPGTAPKLLIYGNINRPSGVPDRFSGSRSGTSAFLAITRLQAEDEADYYCQSYDRSLHYVFGAGTKVTVL , state its recorded EC50.
0.0274 µg/mL

Given MPH12 VH-S63A / MPH12 VL (antibody, V domains shown, MPH12 variant; VH and VL only) VH: QVQLVESGGGLVKPGGSLRLSCVASGFTFSGFYMKWIRQAPGKGLEWVSSISASGSYTNYADAVEGRFTVSRDNAKNSLFLLMSSLRAEDTAVYYCARGDSYCGASACHGEFFHKWGQGTLVTVSS VL: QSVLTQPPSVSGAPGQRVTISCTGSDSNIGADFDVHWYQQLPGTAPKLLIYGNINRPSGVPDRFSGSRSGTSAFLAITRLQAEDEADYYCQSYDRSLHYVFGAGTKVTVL , state its recorded EC50.
0.0358 µg/mL

Given MPH12 VH-FRGL-S63A / MPH12 VL-D25E (antibody, V domains shown, MPH12 variant; VH and VL only) VH: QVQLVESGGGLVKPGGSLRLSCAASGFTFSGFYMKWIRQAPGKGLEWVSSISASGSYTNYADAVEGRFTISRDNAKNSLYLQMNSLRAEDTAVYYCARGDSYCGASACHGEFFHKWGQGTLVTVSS VL: QSVLTQPPSVSGAPGQRVTISCTGSESNIGADFDVHWYQQLPGTAPKLLIYGNINRPSGVPDRFSGSRSGTSAFLAITRLQAEDEADYYCQSYDRSLHYVFGAGTKVTVL , state its recorded EC50.
0.0368 µg/mL

Given MPH12 VH-D62E / MPH12 VL-FRGL (antibody, V domains shown, MPH12 variant; VH and VL only) VH: QVQLVESGGGLVKPGGSLRLSCVASGFTFSGFYMKWIRQAPGKGLEWVSSISASGSYTNYAESVEGRFTVSRDNAKNSLFLLMSSLRAEDTAVYYCARGDSYCGASACHGEFFHKWGQGTLVTVSS VL: QSVLTQPPSVSGAPGQRVTISCTGSDSNIGADFDVHWYQQLPGTAPKLLIYGNINRPSGVPDRFSGSKSGTSASLAITGLQAEDEADYYCQSYDRSLHYVFGTGTKVTVL , state its recorded EC50.
0.0267 µg/mL
